# Organism: Homo sapiens
# ASSAY DETAILS: Selectivity ratio of Ka for recombinant cathepsin-L (unknown origin) to Ka for recombinant cathepsin-B (unknown origin)
The label 1 (yes) is reserved for Ratio strictly under 2; 0 (no) covers values equal to or above it.

Use these answered entries as a reference point.
{"columns": ["STRUCTURE STRING", "LABEL"],
 "data": [
  ["Cc1cccc(C)c1C(=O)OCC(=O)[C@H](CCCCN)NC(=O)[C@H](Cc1ccccc1)NC(=O)[C@H](CCCNC(=N)N)NC(=O)OCc1ccccc1", "0 (no)"],
  ["Cc1cccc(C)c1C(=O)OCC(=O)[C@H](CCCCN)NC(=O)[C@H](Cc1ccccc1)NC(=O)[C@H](Cc1c[nH]c2ccccc12)NC(=O)OCc1ccccc1", "0 (no)"],
  ["Cc1cccc(C)c1C(=O)OCC(=O)[C@H](CCCCN)NC(=O)[C@H](Cc1ccccc1)NC(=O)OCc1ccccc1", "0 (no)"]
]}

Alright, here's another molecule for you.
Report whether reported Ratio is lower than 2 (strictly) for `Cc1cccc(C)c1C(=O)OCC(=O)[C@H](CCCCN)NC(=O)[C@H](Cc1ccccc1)NC(=O)[C@H](CCCCN)NC(=O)OCc1ccccc1`
1 (yes)

* * *

What Ratio Ki was measured for each of the following?
# Species: Homo sapiens
# ASSAY DETAILS: Selectivity ratio of Ki for recombinant cathepsin-B (unknown origin) to Ki for recombinant cathepsin-L (unknown origin)
Square brackets hold non-standard residues; d marks the D form. Peptide text beside a SMILES is read from it. * marks the point of attachment. ξ: configuration not given here. Cbz = O=C(OCc1ccccc1)*; ξPip = O=C(O)C1CCCCN1
Give bare numbers.

Examples with their reported Ratio Ki follow.
{"columns": ["COMPOUND", "ENDPOINT RESULT"],
 "data": [
  ["Cc1ccc(-c2ccc(C[C@H](NC(=O)OCc3ccccc3)C(=O)N[C@@H](CCCCN)C(N)=O)cc2)cc1", 66],
  ["CN(C)c1ccc(C(=O)N[C@@H](Cc2ccccc2)C(=O)N[C@@H](CCCCN)C(N)=O)cc1", 9],
  ["NCCCC[C@H](NC(=O)[C@H](Cc1ccccc1)NC(=O)c1c(F)c(F)c(F)c(F)c1F)C(N)=O", 20],
  ["NCCCC[C@H](NC(=O)[C@H](Cc1ccc(-c2cccc(Cl)c2)cc1)NC(=O)OCc1ccccc1)C(N)=O", 34],
  ["NCCCC[C@H](NC(=O)[C@H](Cc1ccccc1)NC(=O)C1CCCCN1)C(N)=O (stereo partly drawn) (H-[ξPip]-Phe-Lys-NH2)", 8.4],
  ["NCCCC[C@H](NC(=O)[C@H](Cc1ccccc1)NC(=O)[C@H](CCCCN)NC(=O)OCc1ccccc1)C(N)=O (Cbz-Lys-Phe-Lys-NH2)", 1680],
  ["Cc1ccccc1-c1ccc(C[C@H](NC(=O)OCc2ccccc2)C(=O)N[C@@H](CCCCN)C(N)=O)cc1", 11]
]}

In the following, a different compound is considered.
# Ratio Ki lookup, item NC(=O)[C@H](CCCC(N)O)NC(=O)[C@H](Cc1ccccc1)NC(=O)OCc1ccccc1 (stereo partly drawn)
64

* * *

What log10 Ki was measured for each of the following?
# STUDY TARGET: Procathepsin L (Homo sapiens, UniProt P07711)
# Sequence (P07711 whole entry): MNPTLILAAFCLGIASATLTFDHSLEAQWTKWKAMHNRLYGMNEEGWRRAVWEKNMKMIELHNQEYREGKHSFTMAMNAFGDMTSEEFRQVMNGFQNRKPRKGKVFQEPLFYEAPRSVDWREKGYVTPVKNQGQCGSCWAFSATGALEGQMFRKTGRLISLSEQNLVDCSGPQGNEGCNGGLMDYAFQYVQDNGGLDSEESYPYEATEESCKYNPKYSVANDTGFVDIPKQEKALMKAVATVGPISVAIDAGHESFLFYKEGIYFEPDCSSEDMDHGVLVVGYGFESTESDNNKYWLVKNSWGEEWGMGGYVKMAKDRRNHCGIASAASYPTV
# ASSAY DETAILS: Inhibition of recombinant cathepsin-L (unknown origin) using Z-Phe-Arg-AMC as substrate by fluorescence assay
Square brackets hold non-standard residues; d marks the D form. Peptide text beside a SMILES is read from it. * marks the point of attachment. Bip = N[C@@H](Cc1ccc(-c2ccccc2)cc1)C(=O)O; Phe(4-NH2) = Nc1ccc(C[C@H](N)C(=O)O)cc1; Cbz = O=C(OCc1ccccc1)*
Please note: log10 values; quantity Ki; unit µM.

{"columns": ["COMPOUND", "log10 Ki"],
 "data": [
  ["NCCCC[C@H](NC(=O)[C@H](Cc1ccc(O)cc1)NC(=O)OCc1ccccc1)C(N)=O (Cbz-Tyr-Lys-NH2)", 0.15],
  ["Cc1ccc(-c2ccc(C[C@H](NC(=O)OCc3ccccc3)C(=O)N[C@@H](CCCCN)C(N)=O)cc2)cc1", 0.23],
  ["NC(=O)[C@H](Cc1ccc(N)cc1)NC(=O)[C@H](Cc1ccccc1)NC(=O)OCc1ccccc1 (Cbz-Phe-[Phe(4-NH2)]-NH2)", 1.41],
  ["NCCCC[C@H](NC(=O)[C@H](Cc1ccc(-c2ccccc2)cc1)NC(=O)OCc1ccccc1)C(N)=O (Cbz-[Bip]-Lys-NH2)", 0.38],
  ["NCCCC[C@H](NC(=O)[C@H](Cc1ccccc1)NC(=O)CCc1ccc(O)cc1)C(N)=O", 0.40]
]}

Give me log10 Ki for each of these compounds, listed below.
1. NCCCC[C@H](NC(=O)[C@H](Cc1ccccc1)NC(=O)OCc1ccccc1)C(N)=O
2. NCCCC[C@H](NC(=O)[C@H](Cc1ccccc1)NC(=O)[C@H](Cc1c[nH]c2ccccc12)NC(=O)OCc1ccccc1)C(N)=O (Cbz-Trp-Phe-Lys-NH2)

0.62
-0.41
